Test system: HepG2
Assay: Cytotoxicity against human HepG2 cells assessed as reduction in cell viability at 50 uM incubated for 72 hrs by Celltiter-Glo assay
Assay type: cell-based
Conditions: hepg2, 72 h
reported property: Activity

• CCOC(=O)[C@H](Cc1ccccc1)NP(=O)(CCN1CCC[C@H]1Cn1cnc2c(=O)[nH]cnc21)N[C@@H](Cc1ccccc1)C(=O)OCC = Non-Toxic
• CCOC(=O)[C@H](Cc1ccccc1)NP(=O)(CCN1CCC[C@H]1Cn1cnc2c(=O)[nH]c(N)nc21)N[C@@H](Cc1ccccc1)C(=O)OCC = Non-Toxic
• CCOC(=O)[C@H](Cc1ccccc1)NP(=O)(CCN1CCC[C@@H]1Cn1cnc2c(=O)[nH]cnc21)N[C@@H](Cc1ccccc1)C(=O)OCC = Non-Toxic

====

Test: Selectivity index, ratio of Ki for human HGPRT to Ki for Plasmodium vivax HGPRT
Format: toxicity
reported property: Ratio Ki
// return just the number, without any unit appended

Quick one: Ratio Ki of "Nc1nc2c(ncn2[C@H]2CCN(C(=O)CP(=O)(O)O)C2)c(=O)[nH]1" ? 28

Also Nc1nc2c(ncn2CC2CCCN(CP(=O)([O-])[O-])C2)c(=O)[nH]1.[Na+].[Na+] (centres undefined) , if possible. 0.24

Also "Nc1nc2c(ncn2C[C@@H]2CCCN2CCP(=O)([O-])[O-])c(=O)[nH]1.[Na+].[Na+]" , if possible. 0.45

Also O=c1[nH]cnc2c1ncn2CC1CN(CCP(=O)([O-])[O-])CCN1CCP(=O)([O-])[O-].[Na+].[Na+].[Na+].[Na+] (centres undefined) , if possible. 0.012

====

Experiment: Selectivity index, ratio of Ki for human HGPRT to Ki for Plasmodium falciparum HGXPRT
Format: toxicity
For each record, write down the corresponding Ratio Ki.

Quick one: Ratio Ki of "O=c1[nH]cnc2c1ncn2C[C@@H]1CCCN1CCP(=O)([O-])[O-].[Na+].[Na+]" ? > 1.1

Also "O=c1[nH]cnc2c1ncn2C[C@H]1CCCN1CCP(=O)([O-])[O-].[Na+].[Na+]" , if possible. > 3.3

Also "O=c1[nH]cnc2c(C3=NCCN3CCCP(=O)(O)O)c[nH]c12" , if possible. > 16

Also "Nc1nc2c(ncn2C[C@H]2CCCN2CCP(=O)([O-])[O-])c(=O)[nH]1.[Na+].[Na+]" , if possible. > 1.7

Also O=c1[nH]cnc2c1ncn2CC1CCCN(CP(=O)([O-])[O-])C1.[Na+].[Na+] (stereo not given) , if possible. > 2.9

====

Assay: Selectivity index, ratio of Ki for human HGPRT to Ki for Plasmodium vivax HGPRT
Assay type: toxicity
For each record, write down the corresponding Ratio Ki.

Quick one: Ratio Ki of "O=c1[nH]cnc2c(C3=NCCN3CCCP(=O)(O)O)c[nH]c12" ? > 12

Also O=c1[nH]cnc2c1ncn2CC1CCCN(CP(=O)([O-])[O-])C1.[Na+].[Na+] (stereo not drawn) , if possible. > 0.7

Also "Nc1nc2c(ncn2C[C@H]2CCCN2CCP(=O)([O-])[O-])c(=O)[nH]1.[Na+].[Na+]" , if possible. > 1.3

====

For each record, write down the corresponding Ki.
Biological target: Hypoxanthine-guanine phosphoribosyltransferase (Homo sapiens)
Sequence (P00492 whole entry): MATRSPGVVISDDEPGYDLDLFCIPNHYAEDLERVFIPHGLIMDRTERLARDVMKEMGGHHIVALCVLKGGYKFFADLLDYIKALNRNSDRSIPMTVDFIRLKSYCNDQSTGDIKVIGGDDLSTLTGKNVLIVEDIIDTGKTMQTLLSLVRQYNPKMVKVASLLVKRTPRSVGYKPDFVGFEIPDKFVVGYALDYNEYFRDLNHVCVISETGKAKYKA
Assay: Inhibition of human HGPRT using PRib-PP as substrate by Hanes-plot based method

Quick one: Ki of "O=c1[nH]cnc2c1ncn2C[C@@H]1CCCN1CCP(=O)([O-])[O-].[Na+].[Na+]" ? > 50 µM

Also "O=c1[nH]cnc2c1ncn2C[C@H]1CCCN1CCP(=O)([O-])[O-].[Na+].[Na+]" , if possible. > 50 µM

Also "O=c1[nH]cnc2c(C3=NCCN3CCCP(=O)(O)O)c[nH]c12" , if possible. > 74 µM

Also "Nc1nc2c(ncn2C[C@H]2CCCN2CCP(=O)([O-])[O-])c(=O)[nH]1.[Na+].[Na+]" , if possible. > 50 µM

Also O=c1[nH]cnc2c1ncn2CC1CCCN(CP(=O)([O-])[O-])C1.[Na+].[Na+] (stereo not given) , if possible. > 50 µM
